- Experimental system: T1, hPRLR.mFc (soluble dimeric human PRLR) (Homo sapiens, UniProt P16471)
- T1 construct: dimeric (hPRLR.mFc)
- T1 sequence (P16471 with tags, fused parts or gaps): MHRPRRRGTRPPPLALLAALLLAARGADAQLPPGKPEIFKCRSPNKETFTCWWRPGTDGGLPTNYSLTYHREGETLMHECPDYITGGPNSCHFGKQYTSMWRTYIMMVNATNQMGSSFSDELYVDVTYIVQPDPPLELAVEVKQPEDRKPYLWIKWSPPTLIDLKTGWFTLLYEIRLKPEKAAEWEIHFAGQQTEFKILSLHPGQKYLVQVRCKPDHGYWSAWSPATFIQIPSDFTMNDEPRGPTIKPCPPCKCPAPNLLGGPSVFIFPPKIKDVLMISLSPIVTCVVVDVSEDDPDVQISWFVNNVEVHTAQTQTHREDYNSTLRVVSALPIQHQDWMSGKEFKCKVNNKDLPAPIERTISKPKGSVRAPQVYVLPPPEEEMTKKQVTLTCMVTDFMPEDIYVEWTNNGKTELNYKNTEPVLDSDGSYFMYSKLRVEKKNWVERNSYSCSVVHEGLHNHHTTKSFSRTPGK
- Method: Surface plasmon resonance (Biacore T200), mAb-capture format
- Format: binding
- Settings: 37° C., antibody-capture format, analyte hPRLR.mFc
Measured metric: T½

{"Molecule": "H1H6793P: anti-PRLR antibody, human IgG1 Fc; HCVR/LCVR SEQ ID NOs 146/154 (antibody, V domains shown, human IgG1 Fc) VH: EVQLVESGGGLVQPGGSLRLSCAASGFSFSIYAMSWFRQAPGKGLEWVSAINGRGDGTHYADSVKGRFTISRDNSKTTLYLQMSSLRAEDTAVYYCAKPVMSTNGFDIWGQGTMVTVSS VL: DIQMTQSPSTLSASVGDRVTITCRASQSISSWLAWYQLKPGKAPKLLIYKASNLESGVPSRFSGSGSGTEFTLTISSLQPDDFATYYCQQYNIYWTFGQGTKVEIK", "Measured metric": "T½", "Data value": "81 min"}
{"Molecule": "H1H6959N2: human IgG1 Fc form of H2M6959N2; anti-PRLR; HCVR/LCVR SEQ ID NOs 306/314 (antibody, V domains shown, human IgG1 Fc) VH: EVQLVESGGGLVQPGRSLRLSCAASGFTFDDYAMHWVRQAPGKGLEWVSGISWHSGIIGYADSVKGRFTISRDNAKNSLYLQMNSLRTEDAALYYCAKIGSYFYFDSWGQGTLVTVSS VL: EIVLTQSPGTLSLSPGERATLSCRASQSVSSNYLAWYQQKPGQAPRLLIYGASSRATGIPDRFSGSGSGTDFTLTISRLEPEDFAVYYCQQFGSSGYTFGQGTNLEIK", "Measured metric": "T½", "Data value": "5.0 min"}
